Just for reference, PubChem BioAssay AID1259407 is where these values come from.

Test system: CCRIS mutagenicity, Ames/micronucleus/aberration tests
test-summary: CCRIS mutagenicity studies
measurement-parameters: Test System: AMES SALMONELLA TYPHIMURIUM; Strain/Indicator: TA1538; Metabolic Activation: RAT LIVER S-9, AROCLOR 1254; Method: STANDARD PLATE
Calls of active or inactive are those of the source. The rule behind the calls is not given here.
Labels: active, inactive

structure-string: CC[n+]1c(-c2ccccc2)c2cc(N)ccc2c2ccc(N)cc21
measurement-target: CCRIS mutagenicity, Ames/micronucleus/aberration tests
assigned-category: active
//
structure-string: CCO[Si](C)(OCC)OCC
measurement-target: CCRIS mutagenicity, Ames/micronucleus/aberration tests
assigned-category: inactive
//
structure-string: C[Si](C)(Cl)Cl
measurement-target: CCRIS mutagenicity, Ames/micronucleus/aberration tests
assigned-category: inactive
//
structure-string: COC(=O)c1ccc(C(=O)OC)cc1
measurement-target: CCRIS mutagenicity, Ames/micronucleus/aberration tests
assigned-category: inactive
//
structure-string: C[Si]1(C)O[Si](C)(C)O[Si](C)(C)O1
measurement-target: CCRIS mutagenicity, Ames/micronucleus/aberration tests
assigned-category: inactive
//
structure-string: C[Si](C)(C)O[Si](C)(C)C
measurement-target: CCRIS mutagenicity, Ames/micronucleus/aberration tests
assigned-category: inactive

* * *

Tested on: CCRIS mutagenicity, Ames/micronucleus/aberration tests
test-summary: CCRIS mutagenicity studies
measurement-parameters: Test System: AMES SALMONELLA TYPHIMURIUM; Strain/Indicator: TA100; Metabolic Activation: RAT LIVER S-9, AROCLOR 1254; Method: STANDARD PLATE
Calls of active or inactive are those of the source. The rule behind the calls is not given here.
Labels: active, inactive

structure-string: C[Si](C)(C)O[Si](C)(C)C
assigned-category: inactive
--
structure-string: COC1=CC(=O)c2c(nc(C)c3c2[nH]c2ccncc23)C1=O
assigned-category: active
--
structure-string: Cc1cc(C)c(C)c(C)c1
assigned-category: inactive

* * *

Tested on: CCRIS mutagenicity, Ames/micronucleus/aberration tests
test-summary: CCRIS mutagenicity studies
measurement-parameters: Test System: AMES SALMONELLA TYPHIMURIUM; Strain/Indicator: TA98; Metabolic Activation: HAMSTER, LIVER, S-9; Method: PREINCUBATION (PRIVAL METHOD)
Calls of active or inactive are those of the source. The rule behind the calls is not given here.

compound: COc1ccccc1NC(=O)C(N=Nc1ccc(-c2ccc(N=NC(C(C)=O)C(=O)Nc3ccccc3OC)c(Cl)c2)cc1Cl)C(C)=O (stereo not drawn)
mutagenic call: inactive; negative
//
compound: Cc1cc(N=Nc2ccccc2C)ccc1N
mutagenic call: active; positive
//
compound: COc1cc(-c2ccc(N/N=C3\C(=O)c4ccc(N)cc4C=C3S(=O)(=O)O)c(OC)c2)ccc1N/N=C1/C=C(S(=O)(=O)O)c2ccccc2C1=O
mutagenic call: active; positive
//
compound: CCOC(=O)C(=NNc1ccc(-c2ccc(NN=C(C(=O)OCC)C(=O)OCC)c(OC)c2)cc1OC)C(=O)OCC
mutagenic call: inactive; negative
//
compound: CN(C)c1ccc(N=Nc2cccc3ccccc23)cc1
mutagenic call: active; positive
//
compound: O=S(=O)(O)c1c(N=Nc2c(O)ccc3ccccc23)ccc2ccccc12
mutagenic call: inactive; negative
//
compound: Nc1ccc(N=Nc2ccc(-c3ccc(N=Nc4c(S(=O)(=O)O)cc5c(c4N)C(=O)/C(=N/Nc4ccccc4)C(S(=O)(=O)O)=C5)cc3)cc2)c(N)c1
mutagenic call: active; positive
//
compound: O=C([O-])c1cc(N=Nc2ccc(-c3ccc(N/N=c4/c(=O)cc/c(=N\Nc5cc(S(=O)(=O)[O-])ccc5[O-])c4=O)cc3)cc2)ccc1[O-].[Cu+2].[Na+].[Na+]
mutagenic call: active; positive

* * *

Tested on: CCRIS mutagenicity, Ames/micronucleus/aberration tests
test-summary: CCRIS mutagenicity studies
measurement-parameters: Test System: AMES SALMONELLA TYPHIMURIUM; Strain/Indicator: TA100; Metabolic Activation: NONE; Method: PREINCUBATION
Calls of active or inactive are those of the source. No rule for the calls is given here.
Labels: 1 (yes) = active, 0 (no) = inactive

compound: COc1ccccc1O
assigned-category: 0 (no)

compound: Cc1ccc(NC(N)=O)cc1
assigned-category: 0 (no)

compound: CC1(c2ccc([N+](=O)[O-])cc2)CO1 (stereo not drawn)
assigned-category: 1 (yes)

compound: Cc1c(C)c2c(c(C)c1OC(=O)CCC(=O)O)CC[C@@](C)(CCC[C@H](C)CCC[C@H](C)CCCC(C)C)O2
assigned-category: 0 (no)

compound: Cc1c(N)cccc1N
assigned-category: 0 (no)

compound: COc1ccc2c(c1O)C(=O)c1ccccc1C2=O
assigned-category: 0 (no)

compound: COc1c(C=O)c(O)cc2c1C(=O)c1ccccc1C2=O
assigned-category: 0 (no)

compound: C=C1CC(=O)O1
assigned-category: 0 (no)

compound: CCCCN(CC(O)c1ccc(O)cc1)N=O (stereo not drawn)
assigned-category: 0 (no)

compound: NC(=O)N/N=C/c1ccc([N+](=O)[O-])o1
assigned-category: 1 (yes)

compound: CC(C)N=C(NC(C)C)OCc1ccc([N+](=O)[O-])cc1
assigned-category: 1 (yes)

compound: C=CC(=O)OC
assigned-category: 0 (no)

compound: Cc1cc2nc3c(ccc4ccccc43)c(C)c2cc1C
assigned-category: 0 (no)

compound: O=C(O)/C=C/c1ccc(Cl)cc1
assigned-category: 0 (no)

compound: COC(C)CCO (stereo not drawn)
assigned-category: 0 (no)

compound: CCCCOCCOCCSC#N
assigned-category: 0 (no)

compound: O=C(Cl)c1ccccc1[N+](=O)[O-]
assigned-category: 1 (yes)

compound: O=S(=O)(O)c1ccc(N=Nc2c(O)c(S(=O)(=O)O)cc3cc(S(=O)(=O)O)ccc23)cc1
assigned-category: 0 (no)

compound: CCN(CC)c1ccc2c(-c3ccccc3C(=O)O)c3ccc(=[N+](CC)CC)cc-3oc2c1
assigned-category: 0 (no)

compound: O=C(O)/C=C/c1ccc([N+](=O)[O-])cc1
assigned-category: 1 (yes)

compound: Nc1ccc(Cl)cc1
assigned-category: 0 (no)

compound: N#[N+]c1ccc([O-])cc1
assigned-category: 1 (yes)

compound: CN(C)c1ccc(-c2ccc(N(C)C)cc2)cc1
assigned-category: 0 (no)

compound: Nc1nc2c([nH]c(=O)n2[C@H]2C[C@H](O)[C@@H](CO)O2)c(=O)[nH]1
assigned-category: 0 (no)

compound: CCC(O)CN (stereo not drawn)
assigned-category: 0 (no)

compound: CC1CS1 (stereo not drawn)
assigned-category: 0 (no)

compound: Cc1cc(O)c2c(c1)C(=O)c1cc(O)cc(O)c1C2=O
assigned-category: 0 (no)

compound: Cc1ccc2cc3c(ccc4ccccc43)c3c2c1CC3OS(=O)(=O)O (stereo not drawn)
assigned-category: 1 (yes)

* * *

Tested on: CCRIS mutagenicity, Ames/micronucleus/aberration tests
test-summary: CCRIS mutagenicity studies
measurement-parameters: Test System: AMES SALMONELLA TYPHIMURIUM; Strain/Indicator: TA102; Metabolic Activation: RAT, LIVER, S-9, AROCLOR; Method: PREINCUBATION
Activity calls are given as the source filed them. The rule behind the calls is not given here.
Labels: true (1) for active, false (0) for inactive

compound: CC(C)(N=O)[N+](=O)[O-]
assigned-category: false (0)
--
compound: O=[N+]([O-])[C-]1CCCC1
assigned-category: true (1)
--
compound: CC(O)C(C)[N+](=O)[O-] (stereo unspecified)
assigned-category: false (0)
--
compound: CC(C)(C)[N+](=O)[O-]
assigned-category: false (0)
--
compound: CC(CO)[N+](=O)[O-] (stereo unspecified)
assigned-category: false (0)
--
compound: C[C-](C)[N+](=O)[O-]
assigned-category: true (1)

* * *

System: CCRIS mutagenicity, Ames/micronucleus/aberration tests
test-summary: CCRIS mutagenicity studies
measurement-parameters: Test System: E. COLI; Strain/Indicator: WP2 UVRA; Metabolic Activation: RAT, LIVER, S-9; Method: PREINCUBATION
Activity calls are given as the source filed them. The rule behind the calls is not given here.
Labels: TRUE for active, FALSE for inactive

compound: CC(C)(S)C(=O)N[C@@H](CS)C(=O)O
measurement-target: CCRIS mutagenicity, Ames/micronucleus/aberration tests
assigned-category: FALSE
--
compound: CCN(CC)N=O
measurement-target: CCRIS mutagenicity, Ames/micronucleus/aberration tests
assigned-category: FALSE
--
compound: CC(=O)OC/N=[N+](/C)[O-]
measurement-target: CCRIS mutagenicity, Ames/micronucleus/aberration tests
assigned-category: FALSE
--
compound: O=CC1CO1 (centres undefined)
measurement-target: CCRIS mutagenicity, Ames/micronucleus/aberration tests
assigned-category: TRUE

* * *

System: CCRIS mutagenicity, Ames/micronucleus/aberration tests
test-summary: CCRIS mutagenicity studies
measurement-parameters: End Point: IN VITRO CHROMOSOMAL ABERRATIONS; Test System: CHINESE HAMSTER OVARY CELLS; Metabolic Activation: RAT, LIVER, S-9, AROCLOR 1254
Excerpt: The CCRIS database contains chemical records with carcinogenicity, mutagenicity, tumor promotion, and tumor inhibition test results. It was developed by the National Cancer Institute (NCI). Data are derived from studies cited in primary journals, current awareness tools, NCI reports, and other sources. Test results have been reviewed by experts in carcinogenesis and mutagenesis. CCRIS provides historical information from the years 1985 - 2011. It is no longer updated. […]
Calls of active or inactive are those of the source. How the calls were made is not given here.
Labels: YES (active), NO (inactive)

compound: O=C([O-])c1cc(N=Nc2ccc(-c3ccc(N/N=c4/c(=O)cc/c(=N\Nc5cc(S(=O)(=O)[O-])ccc5[O-])c4=O)cc3)cc2)ccc1[O-].[Cu+2].[Na+].[Na+]
assigned-category: NO

compound: C=CCN=C=S
assigned-category: YES

compound: O=C1NC(=O)C(c2ccccc2)(c2ccccc2)N1
assigned-category: NO

compound: Brc1ccccc1
assigned-category: NO

compound: CCCCC1C(=O)N(c2ccccc2)N(c2ccccc2)C1=O
assigned-category: YES

compound: CC(=O)NS(=O)(=O)c1ccc(N)cc1
assigned-category: NO

compound: COc1ccc(N)cc1
assigned-category: YES

compound: CC1(C)C(=O)N(Cl)C(=O)N1Cl
assigned-category: NO

compound: N#Cc1c(Cl)c(Cl)c(Cl)c(C#N)c1Cl
assigned-category: YES

compound: Cc1cc(-c2ccc(N)c(C)c2)ccc1N
assigned-category: YES

compound: OCCN(CCO)CCO
assigned-category: NO

compound: COc1ccccc1[N+](=O)[O-]
assigned-category: YES

compound: COC(=O)C(c1ccccc1)C1CCCCN1 (stereo not drawn)
assigned-category: YES
